Form field: TGI (one value per entry).
# Test system: TK-10 renal
# PROCEDURE_TEXT: NCI tumour cell line growth inhibition, 48 h

{"MOLECULE": "CCn1ncc2c(=O)n3ncn(-c4ccc(Br)cc4)c3nc21", "TGI": "> 100 µM"}
{"MOLECULE": "O=C1C=CC(=O)c2c(O)c(N3CCC[C@@H]3CO)c(Cl)c(O)c21", "TGI": "3.3 µM"}
{"MOLECULE": "CS(=O)(=O)N(c1cc(-c2ccc3ncnc(Nc4ccc(F)c(Cl)c4)c3c2)cnc1Cl)S(C)(=O)=O", "TGI": "3.73 µM"}
{"MOLECULE": "O/N=C/c1ccc(O)c(O)c1", "TGI": "> 100 µM"}
{"MOLECULE": "CC1SC(c2ccc(Cl)cc2Cl)N(NC(=O)C(O)c2ccccc2)C1=O (stereo not drawn)", "TGI": "> 100 µM"}
{"MOLECULE": "CN(C)CCCNC(=O)N/N=C/c1ccccc1", "TGI": "> 100 µM"}
{"MOLECULE": "O=c1c2cc3ccccc3n2c(=O)c2cc3ccccc3n12", "TGI": "> 100 µM"}
{"MOLECULE": "COc1ccc(-c2cc3cc(Cl)cc(Cl)c3oc2=O)cc1OC", "TGI": "> 100 µM"}
{"MOLECULE": "COc1cc2cnc3c4cc(OCc5ccccc5)ccc4ccc3c2cc1OC", "TGI": "44 µM"}
{"MOLECULE": "Cc1ccc(C(=O)NC2CC2)cc1-c1ccc2[nH]ncc2c1", "TGI": "> 25 µM"}
{"MOLECULE": "CCn1c(-c2nonc2N)nc2c(N3CCCC3)nccc21", "TGI": "> 25 µM"}
{"MOLECULE": "CC1=C(C)SC(=C2Sc3c(n(C)c(=O)n(C)c3=O)S2)S1", "TGI": "74.7 µM"}
{"MOLECULE": "C=CN(C=C)C(=O)Cn1cc(-c2ccccc2)nn1", "TGI": "> 100 µM"}
{"MOLECULE": "CC(C)=CCc1c(O)cc2oc(-c3ccc(O)cc3O)cc(=O)c2c1O", "TGI": "69.7 µM"}
{"MOLECULE": "COc1cc2c(cc1OCc1ccccc1)NC(=O)[C@@H]1CCCN1C2=O", "TGI": "> 100 µM"}
{"MOLECULE": "CC/C=N\\N1C(N)=C(C#N)C(C#N)(C#N)C1CC (stereo not drawn)", "TGI": "> 100 µM"}
{"MOLECULE": "O=C(C(=C(I)I)c1ccccc1)c1ccccc1", "TGI": "83.7 µM"}
{"MOLECULE": "C/C(=C\\CSCC(N)C(=O)O)CC/C=C(\\C)CNc1ccccc1 (stereo not drawn)", "TGI": "> 100 µM"}
{"MOLECULE": "COc1ccc(S(=O)(=O)N(C(C)=O)c2ccccc2/C=C/c2cc[n+]([O-])cc2)cc1", "TGI": "> 10 µM"}
{"MOLECULE": "NC(Cc1ccccc1)c1nccs1 (stereo not drawn)", "TGI": "> 100 µM"}
{"MOLECULE": "Cc1c(C(=O)NNc2ccccc2)n2c(=S)[nH]nc2c2ccccc12", "TGI": "> 100 µM"}
{"MOLECULE": "CSc1ncc2c(n1)-c1ccccc1OC2NC1CC1 (stereo not drawn)", "TGI": "> 100 µM"}
{"MOLECULE": "Cc1cc(-c2cc(C(C)(C)C)c(O)c(C(C)(C)C)c2)c(C)cc1-c1cc(C(C)(C)C)c(O)c(C(C)(C)C)c1", "TGI": "> 100 µM"}
